// provenance: PubChem BioAssay (EPA / NIEHS)

Target: Transcriptional activator Myb (Homo sapiens) (UniProt P10242)
Sequence (P10242 whole entry, looked up): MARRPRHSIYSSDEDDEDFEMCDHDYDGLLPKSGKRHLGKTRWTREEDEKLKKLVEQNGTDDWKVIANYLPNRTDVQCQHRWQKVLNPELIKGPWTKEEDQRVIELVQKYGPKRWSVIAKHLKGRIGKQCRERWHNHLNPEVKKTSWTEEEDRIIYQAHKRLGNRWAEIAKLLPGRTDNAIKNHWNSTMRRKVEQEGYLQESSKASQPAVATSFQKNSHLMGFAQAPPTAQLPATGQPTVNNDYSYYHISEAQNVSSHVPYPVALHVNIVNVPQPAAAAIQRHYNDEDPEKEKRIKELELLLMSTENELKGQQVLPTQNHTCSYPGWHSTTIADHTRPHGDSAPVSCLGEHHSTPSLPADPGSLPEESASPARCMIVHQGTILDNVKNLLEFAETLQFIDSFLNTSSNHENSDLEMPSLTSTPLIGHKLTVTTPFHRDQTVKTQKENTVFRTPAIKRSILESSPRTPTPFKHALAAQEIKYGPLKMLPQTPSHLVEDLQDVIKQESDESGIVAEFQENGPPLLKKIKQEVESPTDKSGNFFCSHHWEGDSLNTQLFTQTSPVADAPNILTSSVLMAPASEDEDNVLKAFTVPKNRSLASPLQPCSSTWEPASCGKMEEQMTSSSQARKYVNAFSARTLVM
Experiment: ATG_Myb_CIS: Attagene CIS-FACTORIAL HepG2 Assay for human Myeloblastosis (Myb) Proto-Oncogene Transcription Factor (AID 2282986)
Details: HepG2 Attagene CIS-FACTORIAL Myb reporter transcription; actives raise or lower the signal
The source made the active and inactive calls. The calls were made as follows: active = hit-call score of the fitted dose curve at least 0.9, where 1 is the maximum; inactive = score below 0.9.
QUANTITY MEASURED: outcome

[[record]]
compound = "COc1cc(C=O)ccc1O"
quantity_measured = "outcome"
reported = "inactive"

[[record]]
compound = "Cc1cc(NC(=O)C(=O)O)cc(C)c1Oc1ccc(O)c2c1CCC2"
quantity_measured = "outcome"
reported = "inactive"

[[record]]
compound = "Cc1ccc(C)c(C)c1"
quantity_measured = "outcome"
reported = "inactive"

[[record]]
compound = "CN[C@H]1CC[C@@H](c2ccc(Cl)c(Cl)c2)c2ccc(S(N)(=O)=O)cc21"
quantity_measured = "outcome"
reported = "inactive"

[[record]]
compound = "OC[C@@H](O)[C@@H](O)[C@H](O)[C@H](O)CO"
quantity_measured = "outcome"
reported = "inactive"

[[record]]
compound = "Cc1ccc2ncccc2c1"
quantity_measured = "outcome"
reported = "inactive"

[[record]]
compound = "NS(=O)(=O)c1cc2c(cc1Cl)NCNS2(=O)=O"
quantity_measured = "outcome"
reported = "inactive"

[[record]]
compound = "CC(CO)OC(C)CO (configuration not stated) (tested in a mixture with another compound)"
quantity_measured = "outcome"
reported = "inactive"

[[record]]
compound = "Nc1nc(N)c2nc(CNc3ccc(C(=O)N[C@@H](CCC(=O)O)C(=O)O)cc3)cnc2n1"
quantity_measured = "outcome"
reported = "inactive"

[[record]]
compound = "Clc1cc(Cl)c(Cl)cc1Cl"
quantity_measured = "outcome"
reported = "inactive"

[[record]]
compound = "C[C@]12C=CC(=O)C=C1CC[C@@H]1[C@@H]2C(=O)C[C@@]2(C)[C@H]1CC[C@]2(O)C(=O)CO"
quantity_measured = "outcome"
reported = "inactive"

[[record]]
compound = "CCCCCC(=O)O"
quantity_measured = "outcome"
reported = "inactive"

